Assay: Cytotoxicity against human HepG2 cells after 72 hrs by MTT assay
Format: cell-based
Kindly supply the reported CC50 at 72 h values for the records listed here.
Numeric only. Scale: µg/mL

Identify measured CC50 at 72 h corresponding to `FC(F)(F)c1ccc(/C=N/c2sc3c(c2-c2nc4ccccc4s2)CCCC3)cc1` 361

Identify measured CC50 at 72 h corresponding to `Fc1ccc(/C=N/c2sc3c(c2-c2nc4ccccc4s2)CCCC3)cc1` 324

Identify measured CC50 at 72 h corresponding to `Clc1ccc(/C=N/c2sc3c(c2-c2nc4ccccc4s2)CCCC3)c(Cl)c1` 384

Identify measured CC50 at 72 h corresponding to `Nc1sc2c(c1-c1nc3cc(Cl)ccc3s1)CCC2` 67.8

Identify measured CC50 at 72 h corresponding to `Clc1ccc2sc(-c3c(/N=C/C=C/c4ccccc4)sc4c3CCC4)nc2c1` 14.9

###

Assay: Cytotoxicity against human rhabdomyosarcoma cells after 72 hrs by MTT assay
Format: cell-based, Rhabdomyosarcoma cell
Kindly supply the reported CC50 at 72 h values for the records listed here.
Numeric only. Scale: µg/mL

Identify measured CC50 at 72 h corresponding to `Nc1sc2c(c1-c1nc3cc(Cl)ccc3s1)CCC2` 59.1

Identify measured CC50 at 72 h corresponding to `C(=N\c1sc2c(c1-c1nc3ccccc3s1)CCCC2)/c1ccccc1` 71.1

Identify measured CC50 at 72 h corresponding to `C(=N\c1sc2c(c1-c1nc3ccccc3s1)CCCC2)/c1ccc2c(c1)OCO2` 299

Identify measured CC50 at 72 h corresponding to `Clc1ccccc1/C=N/c1sc2c(c1-c1nc3ccccc3s1)CCCC2` 332

Identify measured CC50 at 72 h corresponding to `C(=C\c1ccccc1)/C=N/c1sc2c(c1-c1nc3ccccc3s1)CCC2` 122

Identify measured CC50 at 72 h corresponding to `Oc1ccccc1/C=N/c1sc2c(c1-c1nc3ccccc3s1)CCC2` 100

###

Tested on: Coxsackievirus B5
Test: Antiviral activity against Coxsackievirus B5 infected in human HepG2 cells assessed as inhibition of virus-induced cytopathogenicity after 48 hrs by crystal violet staining method
Assay type: functional, organism-based
Details: Enterovirus B, HepG2, 48 h
QUANTITY: EC50 (µg/mL)
Numeric only. Scale: µg/mL

Identify measured EC50 corresponding to `Fc1ccc(/C=N/c2sc3c(c2-c2nc4ccccc4s2)CCC3)cc1` 15.5

Identify measured EC50 corresponding to `C(=C\c1ccccc1)/C=N/c1sc2c(c1-c1nc3ccccc3s1)CCCC2` 14.7

Identify measured EC50 corresponding to `Nc1sc2c(c1-c1nc3cc(Cl)ccc3s1)CCC2` 6.4

Identify measured EC50 corresponding to `C(=N\c1sc2c(c1-c1nc3ccccc3s1)CCCC2)/c1ccccc1` 32.9

Identify measured EC50 corresponding to `Nc1sc2c(c1-c1nc3cc(Cl)ccc3s1)CCCC2` 3.5

###

Experiment: Selectivity index, ratio of CC50 for human rhabdomyosarcoma cells to EC50 for Enterovirus 71 infected in human rhabdomyosarcoma cells
Format: toxicity
Settings: read-out: Ratio CC50/EC50
Kindly supply the reported selectivity ratio values for the records listed here.
Field format: numeric only.

Identify measured selectivity ratio corresponding to `Nc1sc2c(c1-c1nc3ccccc3s1)CCCC2` 17.8

Identify measured selectivity ratio corresponding to `C(=N\c1sc2c(c1-c1nc3ccccc3s1)CCCC2)/c1ccc2c(c1)OCO2` 9.1

Identify measured selectivity ratio corresponding to `Fc1ccc(/C=N/c2sc3c(c2-c2nc4ccccc4s2)CCCC3)cc1` 32.8

Identify measured selectivity ratio corresponding to `Oc1ccccc1/C=N/c1sc2c(c1-c1nc3ccccc3s1)CCC2` 12.6

###

System: Enterovirus
Assay: Antiviral activity against Enterovirus 71 infected in human rhabdomyosarcoma cells assessed as inhibition of virus-induced cytopathogenicity after 48 hrs by crystal violet staining method
Assay type: functional, organism-based
Details: Enterovirus, 71, 48 h
Just a reminder that ties go to rule not met: only EC50 strictly below 10 mg/L counts as rule met.

Input `Nc1sc2c(c1-c1nc3cc(Cl)ccc3s1)CCC2` ; condition: EC50 strictly below 10 mg/L. Does it hold? rule met

Input `Oc1ccccc1/C=N/c1sc2c(c1-c1nc3ccccc3s1)CCC2` ; condition: EC50 strictly below 10 mg/L. Does it hold? rule met

Input `Oc1ccccc1/C=N/c1sc2c(c1-c1nc3cc(Cl)ccc3s1)CCC2` ; condition: EC50 strictly below 10 mg/L. Does it hold? rule not met

Input `NC(=O)c1ncn([C@@H]2O[C@H](CO)[C@@H](O)[C@H]2O)n1` ; condition: EC50 strictly below 10 mg/L. Does it hold? rule not met

Input `C(=N\c1sc2c(c1-c1nc3ccccc3s1)CCCC2)/c1ccc2c(c1)OCO2` ; condition: EC50 strictly below 10 mg/L. Does it hold? rule not met

Input `Nc1sc2c(c1-c1nc3ccccc3s1)CCCC2` ; condition: EC50 strictly below 10 mg/L. Does it hold? rule not met

Input `Nc1sc2c(c1-c1nc3cc(Cl)ccc3s1)CCCC2` ; condition: EC50 strictly below 10 mg/L. Does it hold? rule met

Input `C(=N\c1sc2c(c1-c1nc3ccccc3s1)CCCC2)/c1ccccc1` ; condition: EC50 strictly below 10 mg/L. Does it hold? rule not met

Input `Oc1ccccc1/C=N/c1sc2c(c1-c1nc3ccccc3s1)CCCC2` ; condition: EC50 strictly below 10 mg/L. Does it hold? rule met

Input `Fc1ccc(/C=N/c2sc3c(c2-c2nc4ccccc4s2)CCCC3)cc1` ; condition: EC50 strictly below 10 mg/L. Does it hold? rule met

###

Experiment: Cytotoxicity against human rhabdomyosarcoma cells after 72 hrs by MTT assay
Assay type: cell-based, Rhabdomyosarcoma cell
QUANTITY: CC50 at 72 h (µg/mL)
Numeric only. Scale: µg/mL

Identify measured CC50 at 72 h corresponding to `Clc1ccc(/C=N/c2sc3c(c2-c2nc4ccccc4s2)CCC3)c(Cl)c1` 160

Identify measured CC50 at 72 h corresponding to `O=[N+]([O-])c1ccc(/C=N/c2sc3c(c2-c2nc4ccccc4s2)CCCC3)cc1` 316

Identify measured CC50 at 72 h corresponding to `Clc1ccc(/C=N/c2sc3c(c2-c2nc4ccccc4s2)CCCC3)c(Cl)c1` 56.6

Identify measured CC50 at 72 h corresponding to `FC(F)(F)c1ccc(/C=N/c2sc3c(c2-c2nc4ccccc4s2)CCCC3)cc1` 250

Identify measured CC50 at 72 h corresponding to `Nc1sc2c(c1-c1nc3ccccc3s1)CCCC2` 253

Identify measured CC50 at 72 h corresponding to `Fc1ccc(/C=N/c2sc3c(c2-c2nc4ccccc4s2)CCC3)cc1` 290

Identify measured CC50 at 72 h corresponding to `Oc1ccccc1/C=N/c1sc2c(c1-c1nc3ccccc3s1)CCCC2` 42.4

Identify measured CC50 at 72 h corresponding to `C(=N\c1sc2c(c1-c1nc3ccccc3s1)CCC2)/c1ccc2c(c1)OCO2` 310

Identify measured CC50 at 72 h corresponding to `Oc1ccccc1/C=N/c1sc2c(c1-c1nc3cc(Cl)ccc3s1)CCC2` 269

Identify measured CC50 at 72 h corresponding to `O=[N+]([O-])c1ccccc1/C=N/c1sc2c(c1-c1nc3ccccc3s1)CCCC2` 255

Identify measured CC50 at 72 h corresponding to `Fc1ccc(/C=N/c2sc3c(c2-c2nc4ccccc4s2)CCCC3)cc1` 230

Identify measured CC50 at 72 h corresponding to `C(=C\c1ccccc1)/C=N/c1sc2c(c1-c1nc3ccccc3s1)CCCC2` 207

Identify measured CC50 at 72 h corresponding to `Fc1ccccc1/C=N/c1sc2c(c1-c1nc3ccccc3s1)CCCC2` 319

Identify measured CC50 at 72 h corresponding to `Fc1ccccc1/C=N/c1sc2c(c1-c1nc3ccccc3s1)CCC2` 270

Identify measured CC50 at 72 h corresponding to `Clc1ccc2sc(-c3c(/N=C/C=C/c4ccccc4)sc4c3CCC4)nc2c1` 122

Identify measured CC50 at 72 h corresponding to `Clc1ccc2sc(-c3c(/N=C/C=C/c4ccccc4)sc4c3CCCC4)nc2c1` 212

Identify measured CC50 at 72 h corresponding to `Nc1sc2c(c1-c1nc3cc(Cl)ccc3s1)CCCC2` 43.5

Identify measured CC50 at 72 h corresponding to `Clc1ccc(/C=N/c2sc3c(c2-c2nc4ccccc4s2)CCCC3)cc1` 367

Identify measured CC50 at 72 h corresponding to `COc1cc(/C=N/c2sc3c(c2-c2nc4ccccc4s2)CCCC3)cc(OC)c1OC` 381

Identify measured CC50 at 72 h corresponding to `Clc1ccc(/C=N/c2sc3c(c2-c2nc4ccccc4s2)CCC3)cc1` 342

Identify measured CC50 at 72 h corresponding to `Clc1ccccc1/C=N/c1sc2c(c1-c1nc3ccccc3s1)CCC2` 123
